List of viability at 28.5 h, 10 µM values.
Experiment: in vitro
Details: human, hela cells, % viability

| MOLECULE | viability at 28.5 h, 10 µM, % |
| --- | --- |
| O=C(NCCCc1nc2cc(F)ccc2[nH]1)[C@@H]1C[C@@H]2C=C[C@H]1C2 | 103 |
| Cc1ccccc1Nc1n[nH]c(=S)s1 | 111 |
| Cc1cc(Cl)c(S(=O)(=O)Nc2ccc3c(c2)OCCO3)cc1OCC(=O)NC1CCCCC1 | 95.5 |
| O=C(NC[C@H]1O[C@@H](CC(=O)N2CCCC2)[C@H](O)[C@@H]1O)c1ccccc1 | 88.5 |
| CCOc1cccc(-c2cncc(N3CCCC3CO)n2)c1 (stereo not shown) | 89.7 |
| O=c1[nH]c(=O)n([C@H]2C[C@@H](O)[C@@H](CO)O2)cc1O | 101 |
| Cn1cc(C(C(=O)O)N2CCN(c3ccccc3)CC2)c2cc(C(=O)O)ccc21 (stereo not shown) | 115 |
| CCCC/C=C/c1ccc(Nc2ccc(N3CCOCC3)cc2)nc1 | 88.7 |
| Cc1nc(C)c(C(=O)NC(Cc2ccsc2)c2nccs2)s1 (stereo not shown) | 82.3 |
| COc1ccc(Nc2ncnc3oc(C)c(C)c23)cc1 | 93.3 |

###

Test: in vitro
Conditions: human, hela cells, % viability

| COMPOUND | DISPLAY_UNIT | viability at 28.5 h, 10 µM |
| --- | --- | --- |
| O=C1Nc2ccc(S(=O)(=O)NCC(O)c3ccc([N+](=O)[O-])cc3)c3cccc1c23 (stereo not shown) | % | 88.1 |
| Cc1nc(S(=O)(=O)CCn2cccn2)n(C2CCCC2)c1C | % | 89 |
| Cc1c(CN2CCCC(c3cc4cccnc4[nH]3)C2)cnn1C (stereo not shown) | % | 99.7 |
| Cc1cc(C(=O)NCCc2ccc(S(N)(=O)=O)cc2)ccc1[N+](=O)[O-] | % | 105 |

###

Experiment: in vitro
Conditions: human, hela cells, % viability
Here, each record is paired with measured viability at 28.5 h, 10 µM data.
MEASURED_QUANTITY: viability at 28.5 h, 10 µM (%)

| COMPOUND | EXPERIMENTAL_RESULT |
| --- | --- |
| O=C1NC2=C(C(=O)N(CC3CCCO3)C2)C(c2cccc(F)c2)N1 (stereo not drawn) | 86.1 |
| CC(C)(CN)CN(Cc1cccc(Cl)c1)C(=O)Nc1ccc2c(c1)OCO2 [CBK002482C] | 107 |
| CSc1sc(C(=O)CC#N)c2c1C=CCC2 | 91 |

###

Experiment: in vitro
Conditions: human, hela cells, % viability

| SMILES | viability at 28.5 h, 10 µM |
| --- | --- |
| N#CCCCCn1cc(NC(=O)NCCc2cccs2)cn1 | 100% |
| O=C1CCC(=O)N1CCOc1nccnc1N1CCN(Cc2ccc([N+](=O)[O-])cc2)CC1 | 93% |
| O=C(NC1CC1)C1CCN(Cn2nnc3ccccc3c2=S)CC1 | 94.1% |

###

Assay: in vitro
Settings: human, hela cells, % viability
Measured viability at 28.5 h, 10 µM, listed per entry.

| COMPOUND | viability at 28.5 h, 10 µM, % |
| --- | --- |
| c1ccc(COc2ccccc2-c2cc(NCCc3ccccn3)ncn2)cc1 [CBK037826] | 102 |
| COc1ccc(NC(=O)c2cnc(-c3cccc(C)c3)c(-c3ccco3)c2)cc1 [CBK037491] | 83.9 |
| Cc1csc2c(C3CCN(C(=O)C4CC4)CC3)nc(C)n12 [CBK285241] | 88.8 |
| CCc1nc2ccc(C(=O)Nc3ccc(Cl)c(Cl)c3)cn2c1N(CC)CCOC [CBK146042] | 94 |
| COCc1cn([C@H]2CO[C@H]3[C@@H]2OC[C@H]3OC)nn1 [CBK289490] | 89.9 |
| O=C(O)Cc1ccc(NC(=O)C2Cc3ccccc3C(=O)O2)cc1 (centres unmarked) [CBK269406] | 85.1 |
| Cc1cccnc1C(c1ccccc1)N(C)C(=O)C1CCN(C(=O)NCc2ccccc2)CC1 (centres unmarked) [CBK074119] | 106 |
| Cc1ccc(O)c(NC(=O)c2cccc(S(=O)(=O)N3CCCCC3)c2)c1 [CBK267790] | 83.3 |
| CCCc1cc(C2CCCCCN2C(=O)c2c(C)noc2C)no1 (centres unmarked) [CBK284919] | 87.7 |
| CN(CC(O)CN1CCOCC1)C(=O)c1cc2sccc2[nH]1 (centres unmarked) [CBK306437] | 95.8 |
| CC(C)c1ccc(S(=O)(=O)Nc2ccc(O)c(Sc3nc[nH]n3)c2)cc1 [CBK266861] | 90.8 |
| Cc1ccn2c(C(=O)N(C)CCc3noc(C(C)C)n3)nnc2n1 [CBK306670] | 89.3 |
| O=C(NC(=S)Nc1sc2c(c1C(=O)O)CCCC2)c1ccccc1 [CBK263695] | 98.1 |
| CC(=O)Nc1cc(C(=O)Nc2ccc(Br)cc2)ccc1C [CBK267788] | 84.1 |
| CCOC(=O)C(C)N1C(=O)S/C(=C/c2cc(Cl)c(OCC(=O)O)c(Br)c2)C1=O (centres unmarked) [CBK265163] | 99.9 |
| CCOc1ccc(NC(=O)C(C)O)c(NC(=O)c2ccccc2Cl)c1 (centres unmarked) [CBK269678] | 92.7 |
| O=C(Cn1c(NCCO)nc2ccccc21)c1ccc([N+](=O)[O-])cc1 [CBK262139B] | 100 |
| CN1CCN(CCC(=O)Nc2ccc(Cl)c(C(F)(F)F)c2)CC1 [CBK265995] | 89.9 |
| COc1ccc(-c2nccnc2NCC2CC2)cc1 [CBK038048] | 95.7 |
| COc1cccc(CN2CCN(C(=O)c3cc(C)[nH]c3C)[C@@H](C)C2)c1 [CBK284255] | 99.1 |
| O=c1c2c3c(sc2nc(SCc2nc4ccccc4[nH]2)n1Cc1ccco1)CCC3 [CBK268306] | 104 |
| OCc1ccc(-c2cncc(-c3ccc(O)cc3)n2)cc1 [CBK123792] | 91.4 |
| COCCNc1cc(-c2cccc(F)c2C(N)=O)c2cc[nH]c2n1 [CBK307682] | 94.2 |
| O=C(COc1cccnc1)N1CCc2ccccc21 [CBK200268] | 107 |
| Cc1csc(NC(=O)c2cc(S(=O)(=O)N3CCCC3)cn2C)n1 [CBK295617] | 87.8 |
| CCSc1ccc(-c2cn3ccnc3c(N3CCN(CCN(C)C)CC3)n2)cc1 [CBK066662] | 92.8 |
